# GI50 annotations
- System: SR
- ASSAY NAME: NCI tumour cell line growth inhibition, 48 h
Active and inactive are the calls of the source. No stated cut-off is given here; in the data, active = GI50 up to about 1.1 µM and inactive = higher.

COMPOUND	VALUE MEASURED
CCC(C)[C@H](NC(=O)N[C@H](C)c1ccccc1)C(=O)OC (some centres not stated)	> 100 µM (inactive)
O=c1[nH]nc(Nc2ccc(Cl)cc2)c2nnn(-c3ccc([N+](=O)[O-])cc3)c12	28.1 µM (inactive)
COC(=O)C1(Cc2ccccc2)Cc2ccccc2C1O (configuration not stated)	92.9 µM (inactive)
CC(C)=CCOc1cc(NC(=S)c2ccsc2C)ccc1Cl	18.7 µM (inactive)
NS(=O)(=O)c1nnc(NSc2ccc([N+](=O)[O-])cc2)s1	59.6 µM (inactive)

### Prompt # GI50 lookup, item COc1ccc(C2C3CCc4ccccc4C3=NN2S(=O)(=O)c2cccc(C(=O)O)c2OC)cc1 (configuration not stated)
### Response 3.8 µM (inactive)

### Prompt Also, CSc1nc2c(c(=O)[nH]1)N=C(c1ccc(Cl)cc1)CC(c1ccccc1)N2 (configuration not stated) please.
### Response 37.8 µM (inactive)

### Prompt # iterate: CC(C)CC1c2[nH]c3ccccc3c2C[C@H]2C(=O)NC(CCC(=O)OC(C)(C)C)C(=O)N12 (some centres not stated)
### Response 22 µM (inactive)

### Prompt Same thing, different compound: CCOC(=O)C1=C(NC(C)(C)C)OC/C1=N\NC(=O)Cc1ccccc1
### Response > 100 µM (inactive)

### Prompt Ok, now N#CC(C(=O)C(=O)NCCCNC(=O)C(=O)C(C#N)c1ccccc1)c1ccccc1 (configuration not stated)
### Response > 100 µM (inactive)

### Prompt Also O=C1C(NCCc2cc(Br)c(O)c(Br)c2)=CC(=O)c2ncccc21 ?
### Response 1.87 µM (inactive)

### Prompt # repeat for Cn1c(=O)n2n(c1=O)C(C)(C13CC4CC(CC(C4)C1)C3)C13CC4CC(CC1C4)CC23 (configuration not stated)
### Response > 100 µM (inactive)

### Prompt Next record, please: c1coc(-c2nccc3c2[nH]c2ccccc23)c1
### Response > 100 µM (inactive)

### Prompt Another: CC(=O)OC1C(=O)C(O)C(C)OC1O[C@@H]1C[C@@]2(C)[C@@H]3CC=C4[C@@H](C[C@H](O)C(=O)C4(C)C)[C@]3(C)C(=O)C[C@]2(C)[C@H]1[C@@](C)(O)C(=O)/C=C/C(C)(C)O (some centres not stated)
### Response 1.52 µM (inactive)

### Prompt And what about the compound CCCCOC(=O)Nc1ccc(S(=O)(=O)Nc2c(Cl)cccc2Cl)cc1 ?
### Response 21.4 µM (inactive)

### Prompt Do the same for CC(C)(C)OC(=O)n1c2ccccc2c2c(=O)nc(N3CCCCC3)sc21 please
### Response 90.4 µM (inactive)

### Prompt What do we get for CC(C)N(C)C(=O)C12C3C4C1C1C2C3C41C#N (configuration not stated) ?
### Response > 100 µM (inactive)

###

- Tested on: COLO 205
- ASSAY NAME: NCI tumour cell line growth inhibition, 48 h
Calls of active or inactive are those of the source. Cut-off read from the data, not from the text of the source: active = GI50 up to about 1.1 µM and inactive = higher.
Lab note: assign the record to one of active, inactive

Solved cases below.
MOLECULE	ANSWER LABEL
C=C1C2C[C@@H]3O[C@H]4C[C@H]5O[C@@]6(C[C@@H]7O[C@]8(C[C@H](C)[C@@H]9O[C@@H]%10CC(CO)O[C@@H]%10C[C@@H]9O8)C[C@H](C)[C@@H]7O6)C[C@H]5O[C@H]4[C@H](C)[C@H]3OC(=O)C[C@H]3CC[C@@H]4OC5[C@H]6O[C@]7(CC[C@H]8CC(=C)[C@H](CC[C@@H](C[C@H]1C)O2)O8)CC6O[C@@H]5[C@@H](O7)[C@H]4O3 (some centres undefined)	active
CN(Cc1cnc2nc(N)nc(N)c2n1)c1ccc(C(=O)NCCCS(=O)(=O)O)cc1	inactive
N#CC(CCN1CCC(Nc2ccccc2)(c2nnnn2C2CCCCC2)CC1)(c1ccccc1)c1ccccc1	inactive
CC(C)CC1c2[nH]c3ccccc3c2C[C@H]2C(=O)NC(CCC(=O)OC(C)(C)C)C(=O)N12 (some centres undefined)	inactive

### Prompt Recorded test call requested for C/C(COc1ccccc1)=N\NC(N)=S
### Response inactive

### Prompt Now the molecule CC(=O)OCc1cn(S(=O)(=O)c2ccc(C)cc2)cn1
### Response inactive

### Prompt And what about the molecule O=C1CCN2C(=Nc3cccc4cccc2c34)N1 ?
### Response inactive

### Prompt Now the molecule C/C(=N\Nc1cc(CN2CCCC2)c(-c2ccc(Cl)cc2)nn1)C(=O)O
### Response inactive

### Prompt Request: O=C(NCCCCCCCN1CCCCCCC1)C(C1CCCCC1)C1CCCCC1
### Response inactive

###

- Tested on: OVCAR-5
- ASSAY NAME: NCI tumour cell line growth inhibition, 48 h
The source made the active and inactive calls. Cut-off read from the data, not from the text of the source: active = GI50 up to about 1.1 µM and inactive = higher.
# GI50 values compiled below

Example entries and their recorded answers appear below.
> print(dat)
                                   molecule  quantity.measured       value.measured
1     c1ccc2c(c1)c1c(n2CCOCCCN2CCCCC2)CCCC1               GI50   13.1 µM (inactive)
2  CC(C)N(C(=O)C12C3(C(=O)C(C)(C)C)C4C5(C#N)C3C1(C(=O)C(C)(C)C)C5C42C(=O)C(C)(C)C)C(C)C (centres undefined)               GI50  > 100 µM (inactive)
3  CCOC(=O)C1C(c2ccco2)C2(C#N)C(=N)OC1(C)C2(C#N)C#N (centres undefined)               GI50  > 100 µM (inactive)

From here, focus on the item given below.
### Prompt Tell me the measured GI50 of O=C(O)C1C2CCC(O2)C1C(=O)Nc1cccc2cccnc12 (centres undefined) , please.
### Response > 100 µM (inactive)

###

- Test system: UACC-62
- ASSAY NAME: NCI tumour cell line growth inhibition, 48 h
Active and inactive are the calls of the source. No stated cut-off is given here; in the data, active = GI50 up to about 1.1 µM and inactive = higher.
QUANTITY MEASURED: GI50

> print(dat)
                                   compound  tested.on       value.measured
1        CCOC(=O)C(=O)Nc1c(C(C)C)cccc1C(C)C    UACC-62  > 100 µM (inactive)
2  O=C1CC(CC(=O)c2ccc(Br)cc2)C(O)=C1C(=O)c1ccc(Br)cc1 (centres undefined)    UACC-62   42.6 µM (inactive)

### Prompt For UACC-62, provide GI50 of O=c1ccc(=O)c2c1c1[nH]c3ccccc3c1c1c(=O)c3ccccc3c(=O)c21 please.
### Response > 10 µM (inactive)

###

Catalogue of molecules with associated GI50
- Test system: SR
- ASSAY NAME: NCI tumour cell line growth inhibition, 48 h
Activity calls are given as the source filed them. No stated cut-off is given here; in the data, active = GI50 up to about 1.1 µM and inactive = higher.

> print(dat)
                                   molecule  quantity.measured       value.measured
1  COc1cc2c(cc1OC)C(=O)C1(C2)[C@H](c2ccccc2)C2C(=O)c3cc(OC)c(OC)cc3C2[C@H]1c1ccccc1 (some centres undefined)               GI50  > 100 µM (inactive)

### Prompt Notebook: pull reported GI50 for SR, entry O=C(NCCCCCCCN1CCCCCCC1)C(C1CCCCC1)C1CCCCC1
### Response 2.34 µM (inactive)

### Prompt # repeat for CCCCCCCC1(N=[N+]=[N-])C(=O)c2ccccc2N(C)C1=O (centres undefined)
### Response > 100 µM (inactive)

### Prompt Moving on to CC(=O)NC1=C(C)C(=O)c2c(nc3n2CCC3OC(=O)c2ccccc2)C1=O (centres undefined)
### Response 2.37 µM (inactive)

###

- Tested on: EKVX
- ASSAY NAME: NCI tumour cell line growth inhibition, 48 h
Active and inactive are the calls of the source. Rule as the data show it: active = GI50 up to about 1.1 µM and inactive = higher.
QUANTITY MEASURED: GI50

Below: 5 compounds and their reported GI50.
> print(dat)
                                   compound       value.measured
1          c1coc(-c2nccc3c2[nH]c2ccccc23)c1  > 100 µM (inactive)
2  CC(C)N(C)C(=O)C12C3C4C1C1C2C3C41C#N (stereo unspecified)  > 100 µM (inactive)
3  O=C(O)C1C2CCC(O2)C1C(=O)Nc1cccc2cccnc12 (stereo unspecified)  > 100 µM (inactive)
4  C/C(=N\Nc1cc(CN2CCCC2)c(-c2ccc(Cl)cc2)nn1)C(=O)O  > 100 µM (inactive)
5                            CCCCCNc1nonc1N  > 100 µM (inactive)

### Prompt Look up GI50: CCC1C(=O)OCc2c1cc1n(c2=O)CCC12OCCO2 (stereo unspecified)
### Response > 100 µM (inactive)

### Prompt Item: COc1ccc2oc(=O)cc(C)c2c1
### Response 21 µM (inactive)

### Prompt How about this compound: CC(C)C(NCc1c2ccccc2[n+]([O-])c2ccccc12)C(=O)O (stereo unspecified)
### Response > 100 µM (inactive)

### Prompt // next record COc1ccc(NC(=S)c2ccc([N+](=O)[O-])o2)cc1
### Response 2.92 µM (inactive)

### Prompt Now the same for Cc1c(Cc2ccccc2)n(COCCCO)c(=O)[nH]c1=O
### Response > 100 µM (inactive)

### Prompt Another: COc1ccccc1OCc1nnc(SCC(=O)O)n1-c1ccccc1
### Response > 100 µM (inactive)
